Test system: Salmonella typhimurium
assay.remarks: MIC, standard strain 16
Format: cell-based
condition.label: Salmonella enterica; S. typhimurium; two-fold dilution, Muller Hinton agar, 10^7 CFU/ml, 37° C., 18 hours; read-out: Minimal Inhibitory Concentration(MIC)
endpoint: MIC (µg/mL)
Kindly answer with a numeric value in µg/mL, unit omitted.

Prompt line: Value lookup for MIC; key = CO/N=C(\C(=O)N[C@@H]1C(=O)N2C(C(=O)[O-])=C(C[n+]3ccc(C(=O)O)c4c3CCC4)CS[C@H]12)c1csc(N)n1 [Example 2]
Response line: 49

Prompt line: I would be grateful if you could share the reported MIC for CCO/N=C(\C(=O)N[C@@H]1C(=O)N2C(C(=O)[O-])=C(C[n+]3ccc(C(N)=O)c4c3CCC4)CS[C@H]12)c1csc(N)n1 [Example 13] .
Response line: 49

Prompt line: Find the recorded MIC belonging to CO/N=C(\C(=O)N[C@@H]1C(=O)N2C(C(=O)[O-])=C(C[n+]3ccc(NC=O)c4c3CCC4)CS[C@H]12)c1csc(N)n1 [Example 19] and report it.
Response line: 195

###

Item-by-item account of MIC
Test system: Streptococcus faecium 8b
assay.remarks: MIC, standard strain 3
Format: cell-based
condition.label: Enterococcus faecium; S. faecium 8b; two-fold dilution, Muller Hinton agar, 10^7 CFU/ml, 37° C., 18 hours; read-out: Minimal Inhibitory Concentration(MIC)
Quick note: unit goes after the number.

Answered examples (2):
CO/N=C(\C(=O)N[C@@H]1C(=O)N2C(C(=O)[O-])=C(C[n+]3ccc(C(=O)O)c4c3CCC4)CS[C@H]12)c1csc(N)n1
25 mg/mL
CO/N=C(\C(=O)N[C@@H]1C(=O)N2C(C(=O)[O-])=C(C[n+]3ccc(C(N)=S)c4c3CCC4)CS[C@H]12)c1csc(N)n1
12.5 mg/mL

Prompt line: Returns the measured MIC for the input compound. Input: "CO/N=C(\C(=O)N[C@@H]1C(=O)N2C(C(=O)[O-])=C(C[n+]3ccc(C(N)=O)c4c3CCC4)CS[C@H]12)c1csc(N)n1"
Response line: 12.5 mg/mL

###

System: Pseudomonas aeruginosa 1771M
assay.remarks: MIC, standard strain 15
Type: cell-based
condition.label: 18 h, read-out: Minimal Inhibitory Concentration(MIC)
The following molecules are listed with their measured MIC values.
Record the value in mg/L, omitting the unit from your answer.

// solved cases for MIC follow
CO/N=C(\C(=O)N[C@@H]1C(=O)N2C(C(=O)[O-])=C(C[n+]3ccc(NC(C)=O)c4c3CCC4)CS[C@H]12)c1csc(N)n1
1560
CO/N=C(\C(=O)N[C@@H]1C(=O)N2C(C(=O)[O-])=C(C[n+]3ccc(C(N)=O)c4c3CCC4)CS[C@H]12)c1csc(N)n1
195

Now look at this one.
Prompt line: Query: MIC; subject: "CO/N=C(\C(=O)N[C@@H]1C(=O)N2C(C(=O)[O-])=C(C[n+]3ccc(C(=O)O)c4c3CCC4)CS[C@H]12)c1csc(N)n1"
Response line: 391

###

System: Pseudomonas aeruginosa 9.027
assay.remarks: MIC, standard strain 12
Type: cell-based
condition.label: Pseudomonas aeruginosa; P. aeruginosa 9.027; two-fold dilution, Muller Hinton agar, 10^7 CFU/ml, 37° C., 18 hours; read-out: Minimal Inhibitory Concentration(MIC)
endpoint: MIC (µg/mL)
State the answer as a number, implicitly in µg/mL.

CO/N=C(\C(=O)N[C@@H]1C(=O)N2C(C(=O)[O-])=C(C[n+]3ccc(-c4nc(C)cs4)c4c3CCC4)CS[C@H]12)c1csc(N)n1 [Example 25]
100000

Prompt line: Any idea what MIC came out for CO/N=C(\C(=O)N[C@@H]1C(=O)N2C(C(=O)[O-])=C(C[n+]3cccc4c3CCC4)CS[C@H]12)c1csc(N)n1 [cefpirome, reference compound] on Pseudomonas aeruginosa 9.027?
Response line: 3120

Prompt line: Reported MIC for Pseudomonas aeruginosa 9.027, given CO/N=C(\C(=O)N[C@@H]1C(=O)N2C(C(=O)[O-])=C(C[n+]3ccc(NC(C)=O)c4c3CCC4)CS[C@H]12)c1csc(N)n1 [Example 17] ?
Response line: 12500

Prompt line: What is its MIC for Pseudomonas aeruginosa 9.027? Entry: CO/N=C(\C(=O)N[C@@H]1C(=O)N2C(C(=O)[O-])=C(C[n+]3ccc(C(N)=O)c4c3CCC4)CS[C@H]12)c1csc(N)n1 [Example 3]
Response line: 1560

###

Test system: Escherichia coli TEM
assay.remarks: MIC, standard strain 10
Assay type: cell-based
condition.label: 18 h, read-out: Minimal Inhibitory Concentration(MIC)
Decision: MIC beneath 50 µg/mL gives true (1); MIC meeting or exceeding 50 µg/mL gives false (0).

Solved entries (count: 4):
CCOC(=O)c1cc[n+](CC2=C(C(=O)[O-])N3C(=O)[C@@H](NC(=O)/C(=N\OC)c4csc(N)n4)[C@H]3SC2)c2c1CCC2
false (0)
CO/N=C(\C(=O)N[C@@H]1C(=O)N2C(C(=O)[O-])=C(C[n+]3ccc(C(N)=S)c4c3CCC4)CS[C@H]12)c1csc(N)n1
false (0)
CC(C)(O/N=C(\C(=O)N[C@@H]1C(=O)N2C(C(=O)[O-])=C(C[n+]3ccccc3)CS[C@H]12)c1csc(N)n1)C(=O)O [ceftazidime, reference compound]
false (0)
CO/N=C(\C(=O)N[C@@H]1C(=O)N2C(C(=O)[O-])=C(C[n+]3ccc(C(=O)O)c4c3CCC4)CS[C@H]12)c1csc(N)n1
false (0)

Prompt line: Find out if reported MIC for "CO/N=C(\C(=O)N[C@@H]1C(=O)N2C(C(=O)[O-])=C(C[n+]3ccc(NC(C)=O)c4c3CCC4)CS[C@H]12)c1csc(N)n1" is less than 50 µg/mL
Response line: true (1)

###

Recorded MIC, one value per entry.
System: Escherichia coli TEM
assay.remarks: MIC, standard strain 10
Type: cell-based
condition.label: 18 h, read-out: Minimal Inhibitory Concentration(MIC)
Value expressed in µg/mL; do not type the unit.

Consider the reported MIC for these compounds:
CCO/N=C(\C(=O)N[C@@H]1C(=O)N2C(C(=O)[O-])=C(C[n+]3ccc(C(N)=O)c4c3CCC4)CS[C@H]12)c1csc(N)n1
195
NC(=O)c1cc[n+](CC2=C(C(=O)[O-])N3C(=O)[C@@H](NC(=O)/C(=N\OCCF)c4csc(N)n4)[C@H]3SC2)c2c1CCC2
98

Now take the following compound into account.
Prompt line: Provide value of MIC for this record tested with Escherichia coli TEM: "CO/N=C(\C(=O)N[C@@H]1C(=O)N2C(C(=O)[O-])=C(C[n+]3ccc(-c4nc(C)cs4)c4c3CCC4)CS[C@H]12)c1csc(N)n1"
Response line: 391

###

Tested on: Escherichia coli 1507 E
assay.remarks: MIC, standard strain 11
Format: cell-based
condition.label: E. coli 1507 E, two-fold dilution, Muller Hinton agar, 10^7 CFU/ml, 37° C., 18 hours, read-out: Minimal Inhibitory Concentration(MIC)
Threshold 50 µg/mL: MIC strictly smaller gives 1 (yes), otherwise 0 (no).

Example entries and their recorded answers appear below.
CO/N=C(\C(=O)N[C@@H]1C(=O)N2C(C(=O)[O-])=C(C[n+]3ccc(NC(C)=O)c4c3CCC4)CS[C@H]12)c1csc(N)n1
1 (yes)
CO/N=C(\C(=O)N[C@@H]1C(=O)N2C(C(=O)[O-])=C(C[n+]3ccc(NC=O)c4c3CCC4)CS[C@H]12)c1csc(N)n1
0 (no)
CO/N=C(\C(=O)N[C@@H]1C(=O)N2C(C(=O)[O-])=C(C[n+]3cccc4c3CCC4)CS[C@H]12)c1csc(N)n1 [cefpirome, reference compound]
0 (no)
CO/N=C(\C(=O)N[C@@H]1C(=O)N2C(C(=O)[O-])=C(C[n+]3ccc(C(=O)O)c4c3CCC4)CS[C@H]12)c1csc(N)n1
1 (yes)

Now for a further compound.
Prompt line: Quick check: MIC of "CO/N=C(\C(=O)N[C@@H]1C(=O)N2C(C(=O)[O-])=C(C[n+]3ccc(-c4nc(C)cs4)c4c3CCC4)CS[C@H]12)c1csc(N)n1" under 50 µg/mL?
Response line: 0 (no)

###

System: Pseudomonas aeruginosa 9.027
assay.remarks: MIC, standard strain 12
Assay type: cell-based
condition.label: Pseudomonas aeruginosa; P. aeruginosa 9.027; two-fold dilution, Muller Hinton agar, 10^7 CFU/ml, 37° C., 18 hours; read-out: Minimal Inhibitory Concentration(MIC)
Protocol: In order to illustrate antibiotic effectiveness of the compounds of the present invention, the minimal inhibitory concentrations (MIC's) of the representative compounds were determined against standard strains and compared with ceftazidime and cefpirome, which were used as control compounds. […]
endpoint: MIC (µg/mL)
Please reply with the bare figure in µg/mL and do not write the unit itself.

CO/N=C(\C(=O)N[C@@H]1C(=O)N2C(C(=O)[O-])=C(C[n+]3ccc(NC=O)c4c3CCC4)CS[C@H]12)c1csc(N)n1
12500

With those in mind, consider the next molecule.
Prompt line: Quick check: MIC on Pseudomonas aeruginosa 9.027, item "CCO/N=C(\C(=O)N[C@@H]1C(=O)N2C(C(=O)[O-])=C(C[n+]3ccc(C(N)=O)c4c3CCC4)CS[C@H]12)c1csc(N)n1" ?
Response line: 6250
